- System: MDA-MB-231 breast
- Assay overview: NCI-60 one-dose screen, 48 h
- Assay context: 10 µM
The panel holds about 83,000 compounds, 20% with a hit somewhere; the sample as a whole holds those more often. Active and inactive are the calls of the source. Rule for the calls: active = growth percent below 10; inactive = the rest.
Please reply with one of these outcomes: active, inactive

// below: answered compounds
INSERT INTO results (compound, class_assignment) VALUES
  ('CCOC(=O)c1ccc(Nc2sc(C(=O)c3cccc([N+](=O)[O-])c3)c(N)c2C#N)cc1', 'inactive'),
  ('C/C=C/CC(C)C(O)C1C(=O)NC(CC)C(=O)N(C)CC(=O)N(C)C(CC(C)C)C(=O)NC(C(C)C)C(=O)N(C)C(CC(C)C)C(=O)NC(C)C(=O)NC(C)C(=O)N(C)C(CC(C)C)C(=O)N(C)C(CC(C)C)C(=O)N(C)C(C(C)C)C(=O)N1C (stereo not given)', 'active'),
  ('OC1OC(COC(c2ccccc2)(c2ccccc2)c2ccccc2)C(O)C(O)C1O (stereo not given)', 'inactive'),
  ('COc1ncnc2c1cnn2C', 'inactive'),
  ('O=C(O)CCCCNC(=O)c1ccccc1', 'inactive');

What did this assay record as the result for CC(=O)N(C)c1ccc([N+](=O)[O-])cc1 ? inactive

How did this test come out for C=CCNC(=O)c1ccc(OC)cc1 ? inactive

I'd appreciate the recorded outcome for Nc1ncnc2[nH]ncc12 from this test. active

Hi, sorry to bother you, what did the test record for COc1cccc(Sc2ccc([N+](=O)[O-])c3no[n+]([O-])c23)c1 ? inactive

So what was the verdict on O=c1cc(-c2ccccc2)nc2cc(-c3ccco3)[nH]n12 in this test? inactive

###

Quick reference: growth of the listed items.
- Tested on: A498 renal
- Assay overview: NCI-60 one-dose screen, 48 h (100 = growth as untreated, 0 = no growth, -100 = all killed)
- Assay context: 10 µM
The panel holds about 83,000 compounds, 20% with a hit somewhere; the sample as a whole holds those more often.
Could you give me the number in %? Just the number is fine.

Would you mind telling me what growth value was observed for O=C1Cc2ccccc2C(=O)O1 ? 123

So what's the measured growth for this one? O=C1NC(=O)C2C(=O)NC(=O)C1C21CCc2ccccc21 (centres undefined) 137

Given the compound Cc1cccc(CO)c1 , what is its reported growth? 108

Which value of growth has been reported for N#CCCc1ccc(O)cc1 in the records? 104

Consider the compound C/C(=N\NC(=O)c1ccccc1N)c1ccccc1O and give its measured growth. 89

Report growth for CCOC(=O)CNN please. 79.6

# query: growth of entry COC(=O)/C=C/C(=O)NC(N)=O 98.6

// returns reported growth for input NC(CSC(c1ccccc1)(c1ccccc1)c1ccccc1)C(=O)O (centres undefined) 48.5

I have this compound here, Cc1cc(C)c(N)c(S(=O)(=O)O)c1 , and I need its recorded growth. 142

###

- Tested on: PC-3 prostate
- Assay overview: NCI-60 one-dose screen, 48 h (100 = growth as untreated, 0 = no growth, -100 = all killed)
- Assay context: 10 µM
Compounds without any hit were thinned out: in the full panel of roughly 83,000, 20% have a hit.
Values of growth greater than or equal to 80% map to yes; values below map to no.

Example entries and their recorded answers appear below.
INSERT INTO results (compound_structure_string, class_assignment) VALUES
  ('O=C(NCc1ccco1)Nc1c(Cl)cc(Cl)cc1Cl', 'yes'),
  ('CCCCNC(=O)C(=O)NCCCC', 'yes');

Is reported growth greater than or equal to 80% here: CSc1[nH]c(=O)ncc1F yes

Decide: growth of CC1=NN(c2ccccc2)C(=O)/C1=C\N1CC(=O)NC1=S >= 80%? yes

Kindly determine if growth recorded for COc1ccccc1NC(=O)c1cc2cc(Br)ccc2cc1O is above or exactly 80%. no

State whether the measured growth reaches 80%, counting equality as reaching it, for COC(=O)Nc1nc2ccc(C(=O)c3cccs3)cc2[nH]1 no

Does the reported growth for C/C(O)=C(\C=N\C(N)=S)C(=O)Nc1ccccc1 fall at or above the 80% mark? yes

Answer whether growth of COc1cccc(Sc2ccc([N+](=O)[O-])c3no[n+]([O-])c23)c1 is greater than or equal to 80%. no

Could you please find out whether CC1(C)OC(=O)C(c2ccsc2)C(=O)O1 has growth that meets 80% or exceeds it? yes

Decide: growth of CC(=O)Nc1c(C)cc(C)cc1C >= 80%? yes

Reported growth at or above 80%? O=[N+]([O-])c1cccc(C(F)(F)F)c1 yes
